Assay: Solubility in 0.5 N saline
Type: physicochemical
Conditions: in 0.5 N Saline at pH 6.5
Residues, ends and D or L forms follow the SMILES beside them. *: point of attachment. Myristoyl = CCCCCCCCCCCCCC(=O)*
Listed below: solubility values for each entry.
ENDPOINT LABEL: solubility

* CCCCCCCCCCCCCC(=O)NCC(=O)N[C@@H](C)C(=O)N[C@@H](CCC(N)=O)C(=O)N[C@@H](Cc1ccccc1)C(=O)N[C@@H](CO)C(=O)N[C@@H](CCCCN)C(=O)N[C@H](C(=O)N[C@@H](C)C(=O)N[C@@H](C)C(=O)N[C@@H](CCCCN)C(=O)NCC(=O)N[C@@H](CCC(=O)O)C(=O)O)[C@@H](C)O [SEQ ID NO: 13, N-myristoyl-GAQFSKTAAKGE] (Myristoyl-GAQFSKTAAKGE-OH; C-terminus assumed) | > 2000 µg/mL
* CCCCCCCCCCCCCC(=O)NCC(=O)N[C@@H](C)C(=O)N[C@@H](CCC(N)=O)C(=O)N[C@@H](Cc1ccccc1)C(=O)N[C@@H](CO)C(=O)N[C@@H](CCCCN)C(=O)N[C@H](C(=O)N[C@@H](C)C(=O)N[C@@H](C)C(=O)N[C@@H](CCCCN)C(=O)O)[C@@H](C)O [SEQ ID NO: 15, N-myristoyl-GAQFSKTAAK] (Myristoyl-GAQFSKTAAK-OH; C-terminus assumed) | > 10000 µg/mL
* CCCCCCCCCCCCCC(=O)NCC(=O)N[C@@H](C)C(=O)N[C@@H](CCC(N)=O)C(=O)N[C@@H](Cc1ccccc1)C(=O)N[C@@H](CO)C(=O)N[C@@H](CCCCN)C(=O)N[C@H](C(=O)N[C@@H](C)C(=O)N[C@@H](C)C(=O)N[C@@H](CCCCN)C(=O)NCC(=O)N[C@@H](CCC(=O)O)C(=O)N[C@@H](C)C(=O)N[C@@H](C)C(=O)N[C@@H](C)C(=O)N[C@@H](CCC(=O)O)C(=O)O)[C@@H](C)O [SEQ ID NO: 9, N-myristoyl-GAQFSKTAAKGEAAAE] (Myristoyl-GAQFSKTAAKGEAAAE-OH; C-terminus assumed) | > 2000 µg/mL
